Where do these numbers come from? They come from PubChem BioAssay.

Measured z-score accompanies every entry in the list below.
test: P. aeruginosa biofilm formation inhibitors, primary screen, PAO1 strain, BacTiter-Glo luminescence, LB-PBS (AID 1144); details: 12 h, higher = more signal
result_type: z-score

O=C(CS)NCCCCCNC(=O)[C@@H]1C[C@@H]2C(=O)N3CCC[C@H]3C(=O)N2[C@@H]1c1cccc(OCCO)c1 : -0.448
COc1ccc([Si](C)(C)[C@H]2[C@H](CCn3cc([C@H](O)c4ccccc4)nn3)O[C@@]3(C(=O)N(Cc4ccc(N5C(=O)c6cccc7cccc5c67)cc4)c4ccccc43)[C@@H]2C)cc1 : -1.05
COc1ccc([Si](C)(C)[C@@H]2[C@@H](CC(=O)N3Cc4ccccc4C[C@H]3CO)O[C@]3(C(=O)N(Cc4cccc(N5C(=O)c6cccc7cccc5c67)c4)c4ccccc43)[C@H]2C)cc1 : -0.194
COCCOC(=O)N1C(=O)[C@@]2(c3cc(C#CC4=CCCCC4)ccc31)[C@H](c1ccc(OCCO)cc1)N1[C@H](c3ccccc3)[C@H](c3ccccc3)OC(=O)[C@H]1[C@@H]2C(=O)NC[C@H](O)c1ccccc1 : 0.698
O=C1C2C=CC(C(O)c3ccc(F)cc3)N(n3cnnc3)C2C(=O)N1Cc1ccccc1 (configuration not stated) : -0.488
CCCCC(O)C1C=CC2C(=O)N(c3ccccc3)C(=O)C2N1Nc1ccc(C(C)C)cc1 (configuration not stated) : -0.905
C=C(COC)C(=O)CC[C@@H](OC(=O)c1cccnc1)c1ccc(OCCO)cc1 : 0.403

====

test: binders of probe aFSTL3 on microarray, primary screen, stem cell growth factor project, biochemical, small-molecule microarray, fluorescence 635/667 (AID 1064); details: higher = more signal;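 also: measures binding of the biotinylated anti-FSTL3 antibody to printed compounds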
result_type: composite z-score

CCOC(=O)C[C@H]1[C@H](OC(=O)c2cc3ccccc3oc2=O)[C@@H](NC(=O)c2ccc(-c3ccccc3)cc2)c2cc(OCCCO)ccc2N1C(=O)c1ccccc1 : -0.561
O=C1OCC=C[C@H]2OC34C=CCN(Cn5nnc6ccccc65)C(=O)[C@H]3N(CCCO)C(=O)[C@@H]4[C@@H]12 (stereo partly drawn) : 0.466
CC(CO)N1C(=O)[C@@H]2[C@H]3C(=O)OCC=C[C@H]3OC23C=CCN(C(C)(C)C)C(=O)[C@@H]13 (stereo partly drawn) : -0.279
C=CC[C@]1(C(=O)O)COC(c2ccc(OCCCO)cc2)=N1 : -0.151
COC(=O)c1c(CC[C@@H](CO)NC(=O)N2CCC[C@H]2Cn2cc(Cc3ccccc3)nn2)oc(C(C)=O)c1C(=O)OC : -0.506
CC[C@H]1C2=C3C(CC[C@H]4C(OCc5ccc(F)cc5C(F)(F)F)OC[C@](C)([C@@H]34)N(C(=O)OC(C)(C)C)C2)C(COC)C1COC (stereo partly drawn) : -0.117
Cc1cc(C)c(C(O)C2C=CC3C(=O)NC(=O)C3N2Nc2ccc(Cl)cc2Cl)c(C)c1 (stereo not drawn) : 0.246
C[N+](C)(C)CCCCCCNC(=O)[C@H]1C[C@H]2C(=O)N[C@@H](Cc3ccccc3)C(=O)N2[C@H]1c1ccc(O)cc1 : 0.18
CO[C@H]1O[C@H](CO)[C@@H](OC(=O)Nc2ccc3c(c2)OCO3)[C@H](OC(=O)c2cc3ccccc3[nH]2)[C@H]1OC(=O)c1cc2ccccc2[nH]1 : -0.0446
CO[C@H]1O[C@H](CO)[C@@H](OC(=O)Nc2ccccc2-c2ccccc2)[C@H](OC(=O)Nc2ccc3c(c2)OCO3)[C@H]1OC(=O)Nc1ccc2c(c1)OCO2 : -0.0811
CC(C)(C)OC(=O)CC[C@]1(C(=O)NCc2ccccc2)N=C(c2ccc(OCCCO)cc2)O[C@H]1c1ccccc1CN=[N+]=[N-] : -0.0386
COCCOC(=O)N1C(=O)[C@@]2(c3cc(C#CCC(C(=O)OC)C(=O)OC)ccc31)[C@H](C(=O)N1CCc3cc(OC)c(OC)cc3C1)[C@H]1C(=O)O[C@H](c3ccccc3)[C@H](c3ccccc3)N1[C@@H]2c1ccc(OCCO)cc1 : -0.63
CC(CO)N1C(=O)[C@@H]2[C@H]3C(=O)OCC=C[C@H]3OC23C=CCN(Cc2ccccc2)C(=O)[C@@H]13 (stereo partly drawn) : 0.0457
CCOC(=O)C[C@H]1[C@H](OC(=O)c2cc3ccccc3oc2=O)[C@@H](NC(=O)c2ccc(-c3ccccc3)cc2)c2cc(OCCCO)ccc2N1C(=O)c1ccc2ccccc2n1 : -0.494
COCCOC(=O)N1C(=O)[C@@]2(c3cc(C#CC4=CCCCC4)ccc31)[C@H](c1ccc(OCCO)cc1)N1[C@H](c3ccccc3)[C@H](c3ccccc3)OC(=O)[C@H]1[C@@H]2C(=O)N1CCN(c2ncccn2)CC1 : 0.0516
CCOC(=O)C[C@H]1[C@H](OC(=O)Cc2ccc3c(c2)OCO3)[C@@H](NC(=O)Cc2ccc(OC)cc2)c2cc(OCCCO)ccc2N1C(=O)c1ccc2ccccc2n1 : -0.362
COc1ccc(CCNC(=O)[C@@]2(Sc3ccc(C)cc3)CC(=O)N(C3Cc4ccccc4C3)[C@@H]2c2ccc(CO)cc2)cc1 : 0.183
OCC1CC(c2ccccc2)=NO1 (stereo not drawn) : -0.315
CN1C(=O)C2C=CC(C(O)c3cccc(O)c3)N(Nc3ccccc3)C2C1=O (stereo not drawn) : -0.0512
C=CCNC(=O)[C@H]1[C@@H]2C(=O)O[C@@H](c3ccccc3)[C@@H](c3ccccc3)N2[C@@H](c2ccc(O)cc2)[C@]12C(=O)Nc1ccc(C#CC3(O)CCCCCC3)cc12 : 0.0935
C#CCN([C@@H](Cc1ccc(O)cc1)C(=O)OC)[C@@H](/C=C/C1CC1)[C@H](O)Cc1ccccc1 : 0.164
O=C1N(Cc2ccccc2)c2ccccc2[C@@H]2OC(c3ccc(OCCCO)cc3)=N[C@]12Cc1ccccc1 : 0.677
C=CCC(OC(C)=O)[C@@H]1[C@@H](N(Cc2cc3ccccc3o2)C(=O)c2ccc(-c3ccccc3)cc2)c2cc(OCCCO)ccc2N1C(=O)c1ccc2ccccc2c1 (stereo partly drawn) : -0.0256
Cc1ccc(S[C@]2(C(=O)O)CC(=O)N(Cc3cc(C(F)(F)F)cc(C(F)(F)F)c3)[C@@H]2c2ccc(CO)cc2)cc1 : 0.591
CCOc1cc(C(O)C2C=CC3C(=O)N(C)C(=O)C3N2Nc2ccccc2)ccc1O (stereo not drawn) : -0.329
CC(C)N1CC=CC23O[C@@H]4C=CCOC(=O)[C@@H]4[C@H]2C(=O)N(CCCO)[C@@H]3C1=O (stereo partly drawn) : 0.645
NC(=O)N1C(=O)C2C(C1=O)C1C=C(CCCO)C2C(c2cccs2)N1Cc1cccc(OC(F)(F)F)c1 (stereo not drawn) : -0.206
[N-]=[N+]=Nc1ccccc1[C@H]1OC(c2ccc(OCCCO)cc2)=N[C@@]1(Cc1ccccc1)C(=O)N1CCCCC1 : 0.308
